- method-summary: chemical genetic growth profiling, strain panel (AID 1159580);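 further: tested at 20 µM; growth read once vehicle control cultures reached saturation at 30 °C; 1 = growth at the plate median or of vehicle wells; lower values mean less growth of the strain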
- test-settings: S. cerevisiae deletion strains, growth OD, locus YGL078C, strain dbp3, stronger effect = lower value
The campaign covered roughly 5,500 compounds. About 2,000 (36%) were called active. Not shown: some 18% with an inconclusive outcome. The list shows a part of the results.
quantity-name: normalized growth
// return a plain number; no unit text

Solved cases below.
compound: CN1CCOC(c2ccccc2)c2ccccc2C1 (stereo not drawn)
normalized growth: 1.02
--
compound: COc1ccc2cc3[n+](cc2c1OC)CCc1cc2c(cc1-3)OCO2
normalized growth: 0.854

Q: Using the record for C=C1C(N)CC2CC1C2(C)C (stereo not drawn) , report its normalized growth.
Ans: 1.04

Q: Reported normalized growth for Cc1cc(=O)c2c(O)c3c(cc2o1)OC(C)(C)CC3 : what is it?
Ans: 0.951

Q: So what does the record say about normalized growth for Nc1nc(N)c2nc(-c3ccccc3)c(N)nc2n1 ?
Ans: 1.01
